- TGT: wild type ALAS2 (Homo sapiens, UniProt P22557)
- Construct: MBP (TEV-cleavable) (C, cleaved yes); made in house; host or cells: E. coli
- RUN_DESCRIPTION: General IC50 assay, version 1 (5 ug/mL ALAS2), ALA by mass spectrometry
- Type: biochemical
- TEST_CONDITIONS: version 1 assay: 5 ug/mL ALAS2, 0 uM PLP, 1 h reaction; read-out: IC50 (uM) ALAS2 v1; 0 uM PLP
READOUT_TYPE: IC50

Please review the following examples before continuing.
In: Please report IC50 for the following compound: NNc1cc(-c2ccncc2)[nH]n1
Out: 10 to 50 µM

In: Please report IC50 for the following compound: CN(N)c1nnc(C(F)(F)F)[nH]1
Out: < 10 µM

---
In: Please report IC50 for the following compound: CCOC(=O)c1[nH]cnc1NN
Out: < 10 µM

---

- TGT: wild type ALAS2 (Homo sapiens, UniProt P22557)
- Construct: MBP (TEV-cleavable) (C, cleaved yes); made in house; host or cells: E. coli
- Sequence (P22557 79-587): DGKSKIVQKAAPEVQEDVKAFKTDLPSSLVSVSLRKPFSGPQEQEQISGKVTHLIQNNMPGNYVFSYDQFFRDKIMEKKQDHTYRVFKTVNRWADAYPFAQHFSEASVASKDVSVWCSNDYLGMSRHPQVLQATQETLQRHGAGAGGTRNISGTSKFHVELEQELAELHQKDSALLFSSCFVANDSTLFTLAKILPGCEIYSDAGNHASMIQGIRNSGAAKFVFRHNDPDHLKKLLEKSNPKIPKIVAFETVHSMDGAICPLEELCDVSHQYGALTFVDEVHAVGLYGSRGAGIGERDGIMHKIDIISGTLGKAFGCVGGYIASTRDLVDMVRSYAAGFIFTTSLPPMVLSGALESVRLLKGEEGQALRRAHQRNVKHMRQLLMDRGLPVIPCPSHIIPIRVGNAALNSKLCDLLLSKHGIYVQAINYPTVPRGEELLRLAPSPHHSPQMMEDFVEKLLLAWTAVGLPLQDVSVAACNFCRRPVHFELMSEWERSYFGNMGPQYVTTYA
- RUN_DESCRIPTION: General IC50 assay, version 1 (5 ug/mL ALAS2), ALA by mass spectrometry
- Format: biochemical
- TEST_CONDITIONS: version 1 assay: 5 ug/mL ALAS2, 0 uM PLP, 1 h reaction; read-out: IC50 (uM) ALAS2 v1; 0 uM PLP
READOUT_TYPE: IC50

In: Please report IC50 for the following molecule: NNc1nc(-c2cccnc2)no1 [Compound 19]
Out: < 10 µM

---
In: Please report IC50 for the following molecule: COCc1cnc(N(N)C(=O)C(F)(F)F)s1 [Compound 51]
Out: > 50 µM

In: Please report IC50 for the following molecule: CCCc1nnc(NN)[nH]1 [Compound 13]
Out: 10 to 50 µM

In: Please report IC50 for the following molecule: NNc1nnc[nH]1 [Compound 66]
Out: < 10 µM

In: Please report IC50 for the following molecule: NNc1nnc(-c2ccccc2)[nH]1 [Compound 34]
Out: < 10 µM

In: Please report IC50 for the following molecule: N#Cc1ncoc1NN [Compound 59]
Out: > 50 µM

---

Catalogue of compounds with associated IC50
- TGT: wild type ALAS2 (Homo sapiens, UniProt P22557)
- Construct: MBP (TEV-cleavable) (C, cleaved yes); made in house; host or cells: E. coli
- RUN_DESCRIPTION: General IC50 assay, version 1 (5 ug/mL ALAS2), ALA by mass spectrometry
- Type: biochemical
- TEST_CONDITIONS: version 1 assay: 5 ug/mL ALAS2, 0 uM PLP, 1 h reaction; read-out: IC50 (uM) ALAS2 v1; 0 uM PLP
- Procedure: The exemplified compounds in Table I were tested in vitro against the wild type ALAS2. As described in Example 38, two concentrations of ALAS2 were used: 5 ug/mL ALAS2 (for the version I assay) and 2 ug/mL (for the version 2 assay). […] Measurement of ALA concentration by high throughput mass spectrometry: ALA was monitored in positive mode on a Sciex QTRAP 6500 connected to a Shimadzu 20AD LC using the conditions outlined in the table below. […]

Please review the following examples before continuing.
In: Please report IC50 for the following compound: Cn1nnnc1NN
Out: > 50 µM

In: Please report IC50 for the following compound: NNc1nnc(C2CC2)s1
Out: > 50 µM

In: Please report IC50 for the following compound: CCN(N)c1noc(=O)[nH]1
Out: < 10 µM

Next up:
In: Please report IC50 for the following compound: Cc1csc(NN)n1
Out: > 50 µM

All figures here come from patent US12667087B2.
